Target: human URAT1 (Homo sapiens, UniProt Q96S37)
Construct: The full-length hURAT1 cDNA was obtained from the vector pCMV6-XL5 and subcloned into the expression vector pCMV6-Neo
Sequence (Q96S37 1-553): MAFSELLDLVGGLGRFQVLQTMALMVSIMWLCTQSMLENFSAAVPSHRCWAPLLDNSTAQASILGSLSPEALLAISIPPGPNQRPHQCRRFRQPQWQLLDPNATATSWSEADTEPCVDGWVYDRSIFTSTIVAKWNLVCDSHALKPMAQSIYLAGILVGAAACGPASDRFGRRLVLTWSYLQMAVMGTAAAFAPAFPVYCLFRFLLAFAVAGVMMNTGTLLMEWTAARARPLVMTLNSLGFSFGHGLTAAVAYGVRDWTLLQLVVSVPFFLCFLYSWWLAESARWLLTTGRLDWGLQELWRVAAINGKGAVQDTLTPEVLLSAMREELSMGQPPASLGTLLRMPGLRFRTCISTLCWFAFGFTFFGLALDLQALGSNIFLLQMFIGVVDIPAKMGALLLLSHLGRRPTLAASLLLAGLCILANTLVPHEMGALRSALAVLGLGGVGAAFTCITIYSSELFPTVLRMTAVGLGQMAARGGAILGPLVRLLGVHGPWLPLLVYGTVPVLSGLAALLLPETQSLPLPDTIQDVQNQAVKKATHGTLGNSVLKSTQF
Assay: URAT1 inhibition assay: [8-14C] urate uptake in hURAT1-HEK cells
Format: cell-based
Conditions: 10 μM test compound; 14C urate uptake in hURAT1-HEK cells; vs DMSO control; read-out: % of inhibition (at 10 μM)
Protocol: An in vitro URAT1 assay is useful for identifying compounds with potential activity in lowering serum uric acid. A suitable assay involves transfection of cells (e.g. human embryonic kidney cells; “HEK”) with a vector encoding human URAT1, followed by determination of the ability of transfected cells to take up radiolabeled uric acid. The activity of compounds as URAT1 inhibitors is evaluated by their ability to block uric acid uptake by transfected cells. […]
Would you please tag the item YES when its inhibition at 10 µM is 70% or above, and NO when it is below?

Example results:
COMPOUND | ASSIGNED_CATEGORY
Cc1ccc(CC(=O)O)cc1OCc1c(C)cccc1C [EH, reference compound] | YES
Cc1cccc(C)c1COc1cc(C(=O)O)ccc1N | NO
Cc1ccc(C(=O)O)cc1OCc1c(C)cccc1C | YES
COc1ccc(C(=O)O)cc1OCc1c(C)cccc1C | YES

Attention now turns to another entry.
Can Cc1cccc(C)c1COc1cc(C(=O)O)ccc1[N+](=O)[O-] be said to have inhibition at 10 µM at or above 70%?
YES
